tested on: HeLa cells; assay: MTT cytotoxicity assay (mitochondrial integrity); assay type: cell-based, human
Could you please report measured IC50 for the items listed next?

given.smiles	quantity	result
O=c1[nH]cnc2c1ncn2[C@H]1CC[C@@H](CO)O1	IC50	89 µM

Moving on to another compound below.
// query IC50 value for entry Cc1cn([C@H]2C[C@H](N=[N+]=[N-])[C@@H](CO)O2)c(=O)[nH]c1=O
161 µM

meta.source: patent US20070049585A1
